- System: DU-145 prostate
- EXPERIMENTAL_DETAILS: NCI-60 one-dose screen, 48 h (100 = growth as untreated, 0 = no growth, -100 = all killed)
- CONDITIONS: 10 µM unless noted
The panel holds about 83,000 compounds, 20% with a hit somewhere; the sample as a whole holds those more often. Calls of active or inactive are those of the source. Rule for the calls: active = growth percent below 10; inactive = the rest.
Give measured growth for each item. Keep answers brief.

# input Under DU-145 prostate: report growth of COc1cc(C(=O)NC(=S)NCc2ccncc2)cc(OC)c1OC .
# output 103% (inactive)

# input Please respond with reported growth (system DU-145 prostate) for CC(=O)N(CCCCCCN(C(C)=O)C(C)=O)C(C)=O .
# output 106% [100 µM] (inactive)

# input Report value: growth, system: DU-145 prostate, compound: Nc1c(Br)cc(O)c2c1C(=O)c1ccccc1C2=O
# output 91.6% (inactive)

# input // fetch growth; item: Cc1onc(-c2c(F)cccc2Cl)c1-c1ncc(-c2ccc(Br)cc2)o1 ; system: DU-145 prostate
# output 50% (inactive)

# input Supply growth measured with DU-145 prostate for O=C1C=C[C@H](O)[C@@]2(CO)O[C@@H]12 .
# output 95.6% (inactive)

# input Report the value of growth obtained on DU-145 prostate for C=C(C)COc1ccc(C(C)(C)C)cc1 .
# output 107% (inactive)
